Target: T1, Human CD19-his protein (human, UniProt P15391 20-291)
T1 construct: bought protein; also called recombinant human CD19-His; CD19 full-length protein; not shown: His tag
T1 sequence (looked up): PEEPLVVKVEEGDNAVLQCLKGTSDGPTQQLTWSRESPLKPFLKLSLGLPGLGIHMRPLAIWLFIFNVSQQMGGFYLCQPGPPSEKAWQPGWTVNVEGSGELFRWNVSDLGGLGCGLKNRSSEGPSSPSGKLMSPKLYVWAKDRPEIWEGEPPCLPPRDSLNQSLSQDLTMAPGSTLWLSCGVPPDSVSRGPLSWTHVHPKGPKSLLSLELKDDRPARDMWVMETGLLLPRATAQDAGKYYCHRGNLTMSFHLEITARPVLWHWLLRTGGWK
Assay: ELISA on coated human CD19-His
# reported EC50 (read off the curve); entries follow

Binder: F3.121.4 (antibody, human IgG1, V domains shown, human-murine chimeric antibody, human IgG1 constant; also called chimeric antibody F3.121.4) VH: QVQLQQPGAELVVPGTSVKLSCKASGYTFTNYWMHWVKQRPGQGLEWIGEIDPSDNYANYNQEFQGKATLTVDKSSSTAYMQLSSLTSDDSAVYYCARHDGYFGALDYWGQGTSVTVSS VL: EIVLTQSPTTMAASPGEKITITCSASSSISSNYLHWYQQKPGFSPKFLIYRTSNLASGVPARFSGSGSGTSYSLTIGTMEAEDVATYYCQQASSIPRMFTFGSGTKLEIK
EC50 (read off the curve): ~0.1 nM
//
Binder: F3.121.4-L3H2 (antibody, mouse IgG1, kappa, V domains shown, humanized antibody of F3.121.4, VL3+VH2, murine IgG1 constant regions) VH: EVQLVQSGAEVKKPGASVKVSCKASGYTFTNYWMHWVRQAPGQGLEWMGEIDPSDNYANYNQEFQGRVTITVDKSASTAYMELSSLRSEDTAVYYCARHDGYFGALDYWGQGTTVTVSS VL: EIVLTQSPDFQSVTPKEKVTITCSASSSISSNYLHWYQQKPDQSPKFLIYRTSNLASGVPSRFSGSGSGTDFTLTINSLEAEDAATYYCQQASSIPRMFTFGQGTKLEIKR
EC50 (read off the curve): ~0.05 nM
//
Binder: F3.121.4-L1H2 (antibody, mouse IgG1, kappa, V domains shown, humanized antibody of F3.121.4, VL1+VH2, murine IgG1 constant regions) VH: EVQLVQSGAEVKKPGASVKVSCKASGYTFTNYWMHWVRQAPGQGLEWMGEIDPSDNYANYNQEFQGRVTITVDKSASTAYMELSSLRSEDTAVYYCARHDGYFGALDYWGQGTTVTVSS VL: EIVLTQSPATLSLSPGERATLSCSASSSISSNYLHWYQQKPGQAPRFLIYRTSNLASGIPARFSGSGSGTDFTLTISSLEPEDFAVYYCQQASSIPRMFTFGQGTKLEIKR
EC50 (read off the curve): ~0.05 nM
//
Binder: F3.121.4-L3H1 (antibody, mouse IgG1, kappa, V domains shown, humanized antibody of F3.121.4, VL3+VH1, murine IgG1 constant regions) VH: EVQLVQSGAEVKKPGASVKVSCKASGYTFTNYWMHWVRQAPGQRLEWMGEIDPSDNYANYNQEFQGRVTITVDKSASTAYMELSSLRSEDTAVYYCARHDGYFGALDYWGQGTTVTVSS VL: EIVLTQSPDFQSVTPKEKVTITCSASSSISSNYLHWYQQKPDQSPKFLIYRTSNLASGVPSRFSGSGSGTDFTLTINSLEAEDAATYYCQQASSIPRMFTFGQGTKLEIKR
EC50 (read off the curve): ~0.05 nM

// provenance: patent US20250042994A1
